Biological target: CaM (Bos taurus, UniProt P62157)
Construct: made in house; host or cells: E. coli BL21 (DE3)
Assay: Competition pull-down with native ligand TRPV1-Ct15
Type: binding, bovine
Settings: H14 library; competitor peptide 200 µM; read-out: Surface mapping KD (apparent), competition
pKd: −log10 of the molar value.
Endpoint: pKd

Substance smiles: C[C@@H](O)[C@@H](CC(=O)N[C@H]1CCCC[C@@H]1C(=O)N[C@H]1CCCC[C@@H]1C(=O)N[C@@H](CCC(N)=O)CC(=O)N[C@H]1CCCC[C@@H]1C(N)=O)NC(=O)[C@H]1CCCC[C@@H]1N
System under test: CaM (Bos taurus, UniProt P62157)
Endpoint: pKd
Test result: 3.57
//
Substance smiles: C[C@@H](O)[C@@H](CC(=O)N[C@H]1CCCC[C@@H]1C(=O)N[C@H]1CCCC[C@@H]1C(=O)N[C@@H](CC(N)=O)CC(=O)N[C@H]1CCCC[C@@H]1C(N)=O)NC(=O)[C@H]1CCCC[C@@H]1N
System under test: CaM (Bos taurus, UniProt P62157)
Endpoint: pKd
Test result: 3.53
//
Substance smiles: N=C(N)NCCC[C@@H](CC(=O)N[C@H]1CCCC[C@@H]1C(N)=O)NC(=O)[C@H]1CCCC[C@@H]1NC(=O)[C@H]1CCCC[C@@H]1NC(=O)C[C@H](CO)NC(=O)[C@H]1CCCC[C@@H]1N
System under test: CaM (Bos taurus, UniProt P62157)
Endpoint: pKd
Test result: 3.76
//
Substance smiles: CC(C)[C@@H](CC(=O)N[C@H]1CCCC[C@@H]1C(N)=O)NC(=O)[C@H]1CCCC[C@@H]1NC(=O)[C@H]1CCCC[C@@H]1NC(=O)C[C@H](CCCCN)NC(=O)[C@H]1CCCC[C@@H]1N
System under test: CaM (Bos taurus, UniProt P62157)
Endpoint: pKd
Test result: 3.42
//
Substance smiles: CSCC[C@@H](CC(=O)N[C@H]1CCCC[C@@H]1C(=O)N[C@H]1CCCC[C@@H]1C(=O)N[C@@H](CCC(N)=O)CC(=O)N[C@H]1CCCC[C@@H]1C(N)=O)NC(=O)[C@H]1CCCC[C@@H]1N
System under test: CaM (Bos taurus, UniProt P62157)
Endpoint: pKd
Test result: 3.31
//
Substance smiles: C[C@@H](O)[C@@H](CC(=O)N[C@H]1CCCC[C@@H]1C(=O)N[C@H]1CCCC[C@@H]1C(=O)N[C@H](CC(=O)N[C@H]1CCCC[C@@H]1C(N)=O)Cc1ccc(O)cc1)NC(=O)[C@H]1CCCC[C@@H]1N
System under test: CaM (Bos taurus, UniProt P62157)
Endpoint: pKd
Test result: 3.65
//
Substance smiles: CC(C)[C@@H](CC(=O)N[C@H]1CCCC[C@@H]1C(N)=O)NC(=O)[C@H]1CCCC[C@@H]1NC(=O)[C@H]1CCCC[C@@H]1NC(=O)C[C@H](CCC(N)=O)NC(=O)[C@H]1CCCC[C@@H]1N
System under test: CaM (Bos taurus, UniProt P62157)
Endpoint: pKd
Test result: 3.64
//
Substance smiles: NC(=O)[C@H]1CCCC[C@@H]1NC(=O)C[C@H](CC(=O)O)NC(=O)[C@H]1CCCC[C@@H]1NC(=O)[C@H]1CCCC[C@@H]1NC(=O)C[C@H](CC(=O)O)NC(=O)[C@H]1CCCC[C@@H]1N
System under test: CaM (Bos taurus, UniProt P62157)
Endpoint: pKd
Test result: 3.35
//
Substance smiles: CC(C)C[C@@H](CC(=O)N[C@H]1CCCC[C@@H]1C(=O)N[C@H]1CCCC[C@@H]1C(=O)N[C@H](CC(=O)N[C@H]1CCCC[C@@H]1C(N)=O)Cc1ccc(O)cc1)NC(=O)[C@H]1CCCC[C@@H]1N
System under test: CaM (Bos taurus, UniProt P62157)
Endpoint: pKd
Test result: 3.34

Entry source: paper PMC8162404
